Study Target: SARS-CoV-2 3CLpro (Severe acute respiratory syndrome coronavirus 2)
Assay Text: biochemical
Format: biochemical
Applied Conditions: 4 h, sheet LOPAC_screen_w_protease; primary screen with protease, 5 µM; replicate 2; read-out: Replicate_2
Where a name gives a salt, the structure may show the parent alone.
Would you kindly list inhibition at 5 µM for each of these compounds?
Answers are plain numbers, in %.

# Compound, Number
measured = [
    ("CN(C)CCC(c1ccccc1)c1ccccn1 (stereo not drawn) [Pheniramine maleate]", -2.09),
]

Record inhibition at 5 µM per entry; entries follow.
1. CC(=O)O[C@]1(C(C)=O)CC[C@H]2[C@@H]3C=C(Cl)C4=CC(=O)[C@@H]5C[C@@H]5[C@]4(C)[C@H]3CC[C@@]21C [Cyproterone acetate]
2. N=C(N)NC(=O)c1nc(Cl)c(N)nc1N [Amiloride hydrochloride]
3. O=C(O)c1cc2cc(F)ccc2[nH]1
4. C=CCc1ccccc1OCC(O)CNC(C)C (stereo not drawn) [Alprenolol hydrochloride]
5. CCCCCC(O)c1cccc(OCc2ccc3ccccc3n2)c1 (stereo not drawn)
6. Cc1ccc(S(=O)(=O)NC(=O)NN2CCCCCC2)cc1 [Tolazamide]
7. COC(=O)[C@@H]1[C@H]2C[C@H]3c4[nH]c5ccccc5c4CCN3C[C@@H]2CC[C@@H]1O [Yohimbine hydrochloride]

Response:
1: -2.43; 2: 0.846; 3: -1.3; 4: 0.11; 5: 0.406; 6: -1.78; 7: 1.53

----------
Study Target: UniProtKB P0DTD1
Assay Text: biochemical
Format: biochemical
Set-up: unit not given here
Applied Conditions: sheet LOPAC_screen_w_protease; LOPAC1280 at 5 µM; replicate 1
Would you kindly list Replicate_1 for each of these compounds?
Answers are plain numbers.

Worked cases, answers included:
# Compound, Replicate_1
measured = [
    ("Cl.NOCC(=O)O.NOCC(=O)O", 1.0596),
    ("O=C1CCC(N2C(=O)c3ccccc3C2=O)C(=O)N1 (racemic) [(±)-Thalidomide]", 0.4169),
    ("N[C@H](CCC(=O)NCS(=O)(=O)O)C(=O)O [gamma-D-Glutamylaminomethylsulfonic acid]", 4.708),
    ("N#CCCN.N#CCCN.O=C(O)/C=C/C(=O)O [3-Aminopropionitrile fumarate]", 1.551),
    ("Cl.Cl.c1ccc(CCCN2CCN(CCOC(c3ccccc3)c3ccccc3)CC2)cc1 [GBR-12935 dihydrochloride]", 2.277),
    ("CCNC(=O)[C@H]1O[C@@H](n2cnc3c(NCc4ccccc4)ncnc32)[C@H](O)[C@@H]1O [N6-Benzyl-5'-N-ethylcarboxamidoadenosine]", -0.1675),
]

Record Replicate_1 per entry; entries follow.
1. Cl.O[Si](CCCN1CCCCC1)(c1ccc(F)cc1)C1CCCCC1 (centres unmarked)
2. Cc1nc(-c2ccc(-c3ccc(C(=O)N4CCc5cc6c(cc54)C4(CCN(C)CC4)CO6)cc3)c(C)c2)no1.Cl [SB 224289 hydrochloride]

Response:
1: 2.5476; 2: 2.397

----------
Study Target: SARS-CoV-2 3CLpro (Severe acute respiratory syndrome coronavirus 2)
Assay Text: biochemical
Type: biochemical
Set-up: unit not given here
Applied Conditions: sheet LOPAC_screen_w_protease; primary screen with protease, replicate 2
Would you kindly list Replicate_2 for each of these compounds?
Give bare numbers.

# Compound, Replicate_2
measured = [
    ("C[N+]1(C)CCC(OC(=O)C(c2ccccc2)c2ccccc2)CC1.[I-] [4-DAMP methiodide]", 1.796),
    ("CC(N)c1cccc(Cl)c1Cl.Cl (racemic)", 0.7923),
    ("CCCCN1CCC(COC(=O)c2cc(Cl)c(N)c3c2OCCO3)CC1.Cl [SB 204070 hydrochloride]", 3.5833),
    ("NC/C=C\\C(=O)O [cis-4-Aminocrotonic acid]", 1.781),
    ("N=C(N)NC(=O)c1nc(Cl)c(N2CCCCCC2)nc1N [5-(N,N-hexamethylene)amiloride]", 2.64),
]

Record Replicate_2 per entry; entries follow.
1. CC(=N)NCCCC[C@H](N)C(=O)O.Cl [L-N6-(1-Iminoethyl)lysine hydrochloride]
2. COC(=O)N1CCN(C(=O)Cc2ccc(Cl)c(Cl)c2)C(CN2CCCC2)C1.O=C(O)/C=C/C(=O)O (centres unmarked) [GR-89696 fumarate]
3. CC(=O)O.NC(=NCCC[C@H](N)C(=O)O)NO [NG-Hydroxy-L-arginine acetate]

Response:
1: 0.9911; 2: 2.05; 3: 1.975

----------
Study Target: SARS-CoV-2 3CLpro (Severe acute respiratory syndrome coronavirus 2, UniProt P0DTD1)
Assay Text: biochemical
Format: biochemical
Applied Conditions: 4 h, read-out: Replicate_1
Where a name gives a salt, the structure may show the parent alone.
Property Label: inhibition at 5 µM (%)
Numbers only, in %.

# Compound, Study Target, Readout Units, inhibition at 5 µM
rows = [
    ("c1ccc2c(c1)[I+]c1ccccc1-2 [Diphenyleneiodonium chloride]", "SARS-CoV-2 3CLpro (Severe acute respiratory syndrome coronavirus 2, UniProt P0DTD1)", "%", 3.49),
]

Record inhibition at 5 µM per entry; entries follow.
1. CSc1ccc2c(c1)N(CCC1CCCCN1C)c1ccccc1S2 (centres unmarked) [Thioridazine hydrochloride]
2. COc1cc([C@@H]2c3cc4c(cc3[C@H](O)[C@H]3COC(=O)[C@H]23)OCO4)cc(OC)c1OC [Podophyllotoxin]
3. CCCCc1oc2ccccc2c1C(=O)c1cc(I)c(OCCN(CC)CC)c(I)c1 [Amiodarone hydrochloride]
4. Cc1cc(N)c2ccccc2[n+]1CCCCCCCCCC[n+]1c(C)cc(N)c2ccccc21 [Dequalinium dichloride]
5. C[C@]12CC[C@@H](O)C[C@@H]1CC[C@@H]1[C@@H]2CC[C@]2(C)C(=O)CC[C@@H]12 [Androsterone]
6. CC(=O)N[C@@H](CS)C(=O)O [N-Acetyl-L-Cysteine]
7. Cc1cccc(C)c1N=C1NCCCS1 [Xylazine hydrochloride]

Response:
1: 0.0861; 2: 3.42; 3: 2.09; 4: 2.94; 5: 1.73; 6: 0.481; 7: 0.366

Record inhibition at 5 µM per entry; entries follow.
1. NNc1nncc2ccccc12 [Hydralazine hydrochloride]
2. CN/C(=N/CCSCc1nc[nH]c1C)NC#N [Cimetidine]

Response:
1: 4.76; 2: 1.76

Record inhibition at 5 µM per entry; entries follow.
1. CCCC(C)(COC(N)=O)COC(=O)NC(C)C (centres unmarked) [Carisoprodol]
2. CC[C@@H](CO)NC(=O)[C@@H]1C=C2c3cccc4[nH]cc(c34)C[C@H]2N(C)C1 [Methylergonovine maleate]
3. Oc1ccc2c3c1O[C@H]1c4[nH]c5ccccc5c4C[C@@]4(O)[C@@H](C2)N(CC2CC2)CC[C@]314 [Naltrindole hydrochloride]

Response:
-0.28
1.27
3.59

Record inhibition at 5 µM per entry; entries follow.
1. C[C@@H]1O[C@@H](O[C@H]2C[C@@H](O)[C@]3(CO)[C@H]4[C@H](O)C[C@]5(C)[C@@H](C6=CC(=O)OC6)CC[C@]5(O)[C@@H]4CC[C@]3(O)C2)[C@H](O)[C@H](O)[C@H]1O [Ouabain]
2. NNCCc1ccccc1 [Phenelzine sulfate]
3. NCCCNCCCCNCCCN [Spermine tetrahydrochloride]

Response:
[3.98, 0.173, 3.94]

Prompt: Please indicate inhibition at 5 µM recorded for CC[N+](CC)(CC)CC [Tetraethylammonium chloride]
Response: 2.25

----------
Study Target: SARS-CoV-2 3CLpro (Severe acute respiratory syndrome coronavirus 2)
Assay Text: biochemical
Type: biochemical
Design: unit not given here
Applied Conditions: sheet LOPAC_screen_w_protease; LOPAC1280 primary screen at 5 µM, with protease; replicate 1
Mark criterion not met for Replicate_1 values under 0.8, and criterion met for everything at or above.

# Molecule, Assigned Class
measured = [
    ("CC(C)(C)c1o[nH]c(=O)c1CC(N)C(=O)O (stereo not shown)", "criterion not met"),
    ("C[C@H](Cc1ccccc1)Nc1ncnc2c1ncn2[C@@H]1O[C@H](CO)[C@@H](O)[C@H]1O [R(-)-N6-(2-Phenylisopropyl)adenosine]", "criterion met"),
    ("Nc1ncnc2c1nc(Sc1ccc(Cl)cc1)n2C1OC2COP(=O)(O)OC2C1O (stereo in doubt) [8-(4-Chlorophenylthio)-cAMP sodium]", "criterion met"),
]

Prompt: Reported Replicate_1 reaches at least 0.8 for Cl.c1ccc(CN2CCC3(CCCc4ccccc43)CC2)cc1 [L-687,384 hydrochloride] ?
Response: criterion not met

Prompt: Reported Replicate_1 reaches at least 0.8 for O=C(c1cc(O)c(O)c([N+](=O)[O-])c1)c1ccccc1F ?
Response: criterion not met

Prompt: Reported Replicate_1 reaches at least 0.8 for CN1CCN(c2nc3cc(C(F)(F)F)ccc3n3cccc23)CC1.O=C(O)/C=C\C(=O)O [CGS-12066A maleate] ?
Response: criterion met

Prompt: Reported Replicate_1 reaches at least 0.8 for CN1C2CCC1CC(OC(=O)c1c[nH]c3ccccc13)C2.Cl (stereo not shown) ?
Response: criterion met

Prompt: Reported Replicate_1 reaches at least 0.8 for Cl.O=C(O)C1CCCN(CCC=C(c2ccccc2)c2ccccc2)C1 (stereo not shown) [SKF 89976A hydrochloride] ?
Response: criterion met

Prompt: Reported Replicate_1 reaches at least 0.8 for COc1ccc(CNC(=O)/C=C/c2ccc3[nH]cc(CCN(C)C)c3c2)cc1 ?
Response: criterion met

Prompt: Reported Replicate_1 reaches at least 0.8 for COC(=O)c1c(-c2cc(OC)c(OC)c(OC)c2)c2ccc(OCc3ccccn3)cc2c(=O)n1-c1ccc(N)cc1.O=S(=O)(O)O ?
Response: criterion met

Prompt: Reported Replicate_1 reaches at least 0.8 for CCCCS(=N)(=O)CCC(N)C(=O)O (racemic) [DL-Buthionine-[S,R]-sulfoximine] ?
Response: criterion met

Prompt: Reported Replicate_1 reaches at least 0.8 for N#Cc1cc2nc([O-])c([O-])nc2cc1[N+](=O)[O-].[Na+].[Na+] [CNQX disodium] ?
Response: criterion met

Prompt: Reported Replicate_1 reaches at least 0.8 for COc1[nH]c2ccc(F)cc2c1C(=O)OCC1CCN(CCNS(C)(=O)=O)CC1.NS(=O)(=O)O [GR 125487 sulfamate salt] ?
Response: criterion met
